molecular target: Urotensin-2 receptor (Rattus norvegicus); experiment: Agonist activity at UT receptor in rat aorta assessed as contraction
Peptide text beside a SMILES is read from it.
Hi! Just check whether EC50 is below 1 nM. Below gives MET, equal or above gives NOT MET.

// below: answered compounds
CC(C)[C@H](NC(=O)[C@@H]1CSSC(C)(C)[C@H](NC(=O)[C@@H](N)CC(=O)O)C(=O)N[C@@H](Cc2ccccc2)C(=O)N[C@H](Cc2c[nH]c3ccccc23)C(=O)N[C@@H](CCCN)C(=O)N[C@@H](Cc2ccc(Cl)cc2)C(=O)N1)C(=O)O | NOT MET
CC(C)[C@H](NC(=O)[C@@H]1CSSC(C)(C)[C@H](NC(=O)[C@@H](N)CC(=O)O)C(=O)N[C@@H](Cc2ccccc2)C(=O)N[C@H](Cc2c[nH]c3ccccc23)C(=O)N[C@@H](CCCN)C(=O)N[C@@H](Cc2nc3ccccc3s2)C(=O)N1)C(=O)O | NOT MET
CC(C)[C@H](NC(=O)[C@@H]1CSSC(C)(C)[C@H](NC(=O)[C@@H](N)CC(=O)O)C(=O)N[C@@H](Cc2ccccc2)C(=O)N[C@@H](Cc2c[nH]c3ccccc23)C(=O)N[C@@H](CCCCN)C(=O)N[C@@H](Cc2nc3ccccc3s2)C(=O)N1)C(=O)O (HELM PEPTIDE1{D.[Pen].F.W.K.[O=C([C@H](Cc1nc2ccccc2s1)N[*:1])[*:2]].C.V}$PEPTIDE1,PEPTIDE1,2:R3-7:R3$$$V2.0) | MET
CC(C)[C@H](NC(=O)[C@@H]1CSSC(C)(C)[C@H](NC(=O)[C@@H](N)CC(=O)O)C(=O)N[C@@H](Cc2ccccc2)C(=O)N[C@@H](Cc2c[nH]c3ccccc23)C(=O)N[C@@H](CCCCN)C(=O)N[C@@H](Cc2ccc([N+](=O)[O-])cc2)C(=O)N1)C(=O)O (HELM PEPTIDE1{D.[Pen].F.W.K.[O=C([C@H](Cc1ccc([N+](=O)[O-])cc1)N[*:1])[*:2]].C.V}$PEPTIDE1,PEPTIDE1,2:R3-7:R3$$$V2.0) | MET
CC(C)[C@H](NC(=O)[C@@H]1CSSC(C)(C)[C@H](NC(=O)[C@@H](N)CC(=O)O)C(=O)N[C@@H](Cc2ccccc2)C(=O)N[C@@H](Cc2c[nH]c3ccccc23)C(=O)N[C@@H](CCCCN)C(=O)N[C@@H](Cc2ccc(C#N)cc2)C(=O)N1)C(=O)O (HELM PEPTIDE1{D.[Pen].F.W.K.[N#Cc1ccc(C[C@H](N[*:1])C(=O)[*:2])cc1].C.V}$PEPTIDE1,PEPTIDE1,2:R3-7:R3$$$V2.0) | NOT MET

Turning to the following compound.
Please indicate whether the reported EC50 of `CC(C)[C@H](NC(=O)[C@@H]1CSSC(C)(C)[C@H](NC(=O)[C@@H](N)CC(=O)O)C(=O)N[C@@H](Cc2ccccc2)C(=O)N[C@H](Cc2c[nH]c3ccccc23)C(=O)N[C@@H](CCCN)C(=O)N[C@@H](Cc2cccc3ccccc23)C(=O)N1)C(=O)O` is strictly below 1 nM.
NOT MET

====

assay: Stability in 25% fetal calf serum assessed as parent compound remaining at 80 uM at 37 degC after 36 hrs by RP-HPLC-UV based detection assay; type: ADME, Bos taurus; settings: cattle, read-out: Stability
Peptide text beside a SMILES is read from it.
observation_type: remaining at 36 h, 80 µM

CC(C)[C@H](NC(=O)[C@@H]1CSSC(C)(C)[C@H](NC(=O)[C@@H](N)CC(=O)O)C(=O)N[C@@H](Cc2ccccc2)C(=O)N[C@H](Cc2c[nH]c3ccccc23)C(=O)N[C@@H](CCCN)C(=O)N[C@@H](Cc2ccc(C#N)cc2)C(=O)N1)C(=O)O | > 50%
CC(C)[C@H](NC(=O)[C@@H]1CSSC(C)(C)[C@H](NC(=O)[C@@H](N)CC(=O)O)C(=O)N[C@@H](Cc2ccccc2)C(=O)N[C@@H](Cc2c[nH]c3ccccc23)C(=O)N[C@@H](CCCCN)C(=O)N[C@@H](Cc2ccc(O)cc2)C(=O)N1)C(=O)O (HELM PEPTIDE1{D.[Pen].F.W.K.Y.C.V}$PEPTIDE1,PEPTIDE1,2:R3-7:R3$$$V2.0) | 45%
CC(C)[C@H](NC(=O)[C@@H]1CSSC(C)(C)[C@H](NC(=O)[C@@H](N)CC(=O)O)C(=O)N[C@@H](Cc2ccccc2)C(=O)N[C@H](Cc2c[nH]c3ccccc23)C(=O)N[C@@H](CCCN)C(=O)N[C@@H](Cc2ccc(O)cc2)C(=O)N1)C(=O)O [URANTIDE] (HELM PEPTIDE1{D.[Pen].F.[dW].[Orn].Y.C.V}$PEPTIDE1,PEPTIDE1,2:R3-7:R3$$$V2.0) | > 50%

Proceed to the following item.
What measured remaining at 36 h, 80 µM goes with CC(C)[C@H](NC(=O)[C@@H]1CSSC(C)(C)[C@H](NC(=O)[C@@H](N)CC(=O)O)C(=O)N[C@@H](Cc2ccccc2)C(=O)N[C@@H](Cc2c[nH]c3ccccc23)C(=O)N[C@@H](CCCCN)C(=O)N[C@@H](Cc2ccc(Cl)c(Cl)c2)C(=O)N1)C(=O)O (HELM PEPTIDE1{D.[Pen].F.W.K.[O=C([C@H](Cc1ccc(Cl)c(Cl)c1)N[*:1])[*:2]].C.V}$PEPTIDE1,PEPTIDE1,2:R3-7:R3$$$V2.0) ?
> 50%

====

Molecular target: Urotensin-2 receptor (Rattus norvegicus, UniProt P49684)
Sequence (P49684 whole entry): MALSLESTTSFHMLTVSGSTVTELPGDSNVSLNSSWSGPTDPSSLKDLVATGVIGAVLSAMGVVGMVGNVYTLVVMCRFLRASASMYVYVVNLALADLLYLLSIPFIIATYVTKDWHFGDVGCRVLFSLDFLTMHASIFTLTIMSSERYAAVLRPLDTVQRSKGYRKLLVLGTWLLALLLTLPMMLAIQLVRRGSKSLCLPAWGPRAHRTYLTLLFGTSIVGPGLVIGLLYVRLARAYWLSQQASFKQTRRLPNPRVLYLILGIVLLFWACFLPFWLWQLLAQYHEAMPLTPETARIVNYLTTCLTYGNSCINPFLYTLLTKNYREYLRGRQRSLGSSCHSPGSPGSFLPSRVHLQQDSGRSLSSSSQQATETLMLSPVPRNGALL
Test: Agonist activity at UT receptor in rat aorta assessed as contraction
Peptide text beside a SMILES is read from it.
observation_type: EC50
Dear colleague, please send the value followed by its unit.

Completed entries (count: 2):
CC(C)[C@H](NC(=O)[C@@H]1CSSC(C)(C)[C@H](NC(=O)[C@@H](N)CC(=O)O)C(=O)N[C@@H](Cc2ccccc2)C(=O)N[C@@H](Cc2c[nH]c3ccccc23)C(=O)N[C@@H](CCCCN)C(=O)N[C@@H](Cc2ccc(Cl)c(Cl)c2)C(=O)N1)C(=O)O (HELM PEPTIDE1{D.[Pen].F.W.K.[O=C([C@H](Cc1ccc(Cl)c(Cl)c1)N[*:1])[*:2]].C.V}$PEPTIDE1,PEPTIDE1,2:R3-7:R3$$$V2.0) | 0.0126 nM
CC(C)[C@H](NC(=O)[C@@H]1CSSC(C)(C)[C@H](NC(=O)[C@@H](N)CC(=O)O)C(=O)N[C@@H](Cc2ccccc2)C(=O)N[C@@H](Cc2c[nH]c3ccccc23)C(=O)N[C@@H](CCCCN)C(=O)N[C@@H](Cc2ccc(Cl)cc2)C(=O)N1)C(=O)O (HELM PEPTIDE1{D.[Pen].F.W.K.[O=C([C@H](Cc1ccc(Cl)cc1)N[*:1])[*:2]].C.V}$PEPTIDE1,PEPTIDE1,2:R3-7:R3$$$V2.0) | 0.813 nM

Proceed to the following item.
What measured EC50 goes with `CC(C)[C@H](NC(=O)[C@@H]1CSSC(C)(C)[C@H](NC(=O)[C@@H](N)CC(=O)O)C(=O)N[C@@H](Cc2ccccc2)C(=O)N[C@H](Cc2c[nH]c3ccccc23)C(=O)N[C@@H](CCCN)C(=O)N[C@@H](Cc2ccc3ccccc3c2)C(=O)N1)C(=O)O` ?
3.8 nM

====

target: Urotensin-2 receptor (Rattus norvegicus); experiment: Agonist activity at UT receptor in rat aorta assessed as contraction relative to urotensin-2; assay type: tissue-based
Peptide text beside a SMILES is read from it.
Hi! Just check whether Emax is below 60%. Below gives label 1, equal or above gives label 0.

CC(C)[C@H](NC(=O)[C@@H]1CSSC(C)(C)[C@H](NC(=O)[C@@H](N)CC(=O)O)C(=O)N[C@@H](Cc2ccccc2)C(=O)N[C@H](Cc2c[nH]c3ccccc23)C(=O)N[C@@H](CCCN)C(=O)N[C@@H](Cc2ccc(Cl)cc2)C(=O)N1)C(=O)O | label 1
CC(C)[C@H](NC(=O)[C@@H]1CSSC(C)(C)[C@H](NC(=O)[C@@H](N)CC(=O)O)C(=O)N[C@@H](Cc2ccccc2)C(=O)N[C@@H](Cc2c[nH]c3ccccc23)C(=O)N[C@@H](CCCCN)C(=O)N[C@@H](Cc2ccc(C#N)cc2)C(=O)N1)C(=O)O (HELM PEPTIDE1{D.[Pen].F.W.K.[N#Cc1ccc(C[C@H](N[*:1])C(=O)[*:2])cc1].C.V}$PEPTIDE1,PEPTIDE1,2:R3-7:R3$$$V2.0) | label 0
CC(C)[C@H](NC(=O)[C@@H]1CSSC(C)(C)[C@H](NC(=O)[C@@H](N)CC(=O)O)C(=O)N[C@@H](Cc2ccccc2)C(=O)N[C@H](Cc2c[nH]c3ccccc23)C(=O)N[C@@H](CCCN)C(=O)N[C@@H](Cc2nc3ccccc3s2)C(=O)N1)C(=O)O | label 1
CC(C)[C@H](NC(=O)[C@@H]1CSSC(C)(C)[C@H](NC(=O)[C@@H](N)CC(=O)O)C(=O)N[C@@H](Cc2ccccc2)C(=O)N[C@@H](Cc2c[nH]c3ccccc23)C(=O)N[C@@H](CCCCN)C(=O)N[C@@H](Cc2ccc([N+](=O)[O-])cc2)C(=O)N1)C(=O)O (HELM PEPTIDE1{D.[Pen].F.W.K.[O=C([C@H](Cc1ccc([N+](=O)[O-])cc1)N[*:1])[*:2]].C.V}$PEPTIDE1,PEPTIDE1,2:R3-7:R3$$$V2.0) | label 0
CC(C)[C@H](NC(=O)[C@@H]1CSSC(C)(C)[C@H](NC(=O)[C@@H](N)CC(=O)O)C(=O)N[C@@H](Cc2ccccc2)C(=O)N[C@H](Cc2c[nH]c3ccccc23)C(=O)N[C@@H](CCCN)C(=O)N[C@@H](Cc2ccc3ccccc3c2)C(=O)N1)C(=O)O | label 1
CC(C)[C@H](NC(=O)[C@@H]1CSSC(C)(C)[C@H](NC(=O)[C@@H](N)CC(=O)O)C(=O)N[C@@H](Cc2ccccc2)C(=O)N[C@H](Cc2c[nH]c3ccccc23)C(=O)N[C@@H](CCCN)C(=O)N[C@@H](Cc2ccc([N+](=O)[O-])cc2)C(=O)N1)C(=O)O | label 1

Turning to the following molecule.
Please indicate whether the reported Emax of `CC(C)[C@H](NC(=O)[C@@H]1CSSC(C)(C)[C@H](NC(=O)[C@@H](N)CC(=O)O)C(=O)N[C@@H](Cc2ccccc2)C(=O)N[C@H](Cc2c[nH]c3ccccc23)C(=O)N[C@@H](CCCN)C(=O)N[C@@H](Cc2cccc3ccccc23)C(=O)N1)C(=O)O` is strictly below 60%.
label 1
